Provide the recorded melting point for the entries that follow.

{"chemSmiles": "Cc1cc(Br)cc(C(=O)NC(C)C)c1NC(=O)c1cc(Cl)nn1-c1ncccc1Cl", "melting point": "152 to 153 °C"}

Answer for every listed entry: what is its melting point? The entries follow.
1. CCNC(=O)c1cc(Cl)cc(C)c1NC(=O)c1cc(Br)nn1-c1ncccc1Cl
2. CNC(=O)c1cc(I)cc(C)c1NC(=O)c1cc(Br)nn1-c1ncccc1Cl
3. CCNC(=O)c1cc(Br)cc(C)c1NC(=O)c1cc(Br)nn1-c1ncccc1Cl
4. Cc1cc(I)cc(C(=O)NC(C)(C)C)c1NC(=O)c1cc(C(F)(F)F)nn1-c1ncccc1Cl
5. Cc1cc(I)cc(C(=O)NC(C)C)c1NC(=O)c1cc(Cl)nn1-c1ncccc1Cl
6. CNC(=O)c1cc(Cl)cc(C)c1NC(=O)c1cc(OCC(F)(F)F)nn1-c1ncccc1Cl
7. CNC(=O)c1cc(Cl)cc(Cl)c1NC(=O)c1cc(Br)nn1-c1ncccc1Cl

1: 194 to 195 °C; 2: 229 to 230 °C; 3: 194 to 196 °C; 4: 242 to 243 °C; 5: 189 to 190 °C; 6: 207 to 208 °C; 7: 245 to 246 °C

Answer for every listed entry: what is its melting point? The entries follow.
1. Cc1cc(Br)cc(C(=O)N(C)C)c1NC(=O)c1cc(C(F)(F)F)nn1-c1ncccc1Cl
2. CC(C)NC(=O)c1cc(Br)cc(Br)c1NC(=O)c1cc(Br)nn1-c1ncccc1Cl

["207 to 208 °C", "162 to 163 °C"]
